Reference source for all entries: patent US10252997B2

Target: Human ACC1 (Homo sapiens)
Construct: His6 (from vector pFAST-BacHTc; purified on Ni-NTA) (N); made in house; host or cells: SF-9 insect cells, recombinant baculovirus BAC-ACC1
Assay: Measurement of ACC1 inhibitory activity (Malonyl-CoA produced, RapidFire-mass spectrometry)
Format: biochemical
Conditions: 10 μM of the test compound; read-out: ACC1 inhibitory rate (%) at 10 μM
Description: (1) Cloning of Human ACC1 Gene and Preparation of Recombinant Baculovirus Human ACC1 gene was cloned by PCR using a human liver cDNA library (Clontech) as a template and Primer 1 and Primer 2 shown below. Primer 1 and Primer 2 were prepared by adding SalI, NotI restriction enzyme recognition sequences based on the information of the base sequence of human ACC1 gene (Genbank Accession U19822). PCR was performed using Pyrobest DNA polymerase (TAKARA BIO INC.). […]
Value kind: inhibition at 10 µM (%)
Note: unit % is implicit; provide only the numeric part.

Solved cases (6 shown):
| Compound | Experimental system | Readout unit | Reported |
| --- | --- | --- | --- |
| CC(=O)NC(C)CCc1cnc(-c2ccc(Oc3cccc(OCC4CC4)c3)cc2)o1 (centres unmarked) [Example 32] | Human ACC1 (Homo sapiens) | % | 97 |
| CC(=O)NC(C)c1ccc(OCc2c(F)cc(Oc3cccc(OCC4CC4)c3)cc2F)cc1 (centres unmarked) [Example 39] | Human ACC1 (Homo sapiens) | % | 82 |
| CC(=O)NC(C)CCc1cc(-c2ccc(Oc3cccc(OCC4CC4)c3)cc2)no1 (centres unmarked) [Example 46] | Human ACC1 (Homo sapiens) | % | 95 |
| CC(=O)NC(C)c1ccc(OCc2ccc(Oc3cccc(OCC4CC4)c3)cc2F)cc1 (centres unmarked) [Example 19] | Human ACC1 (Homo sapiens) | % | 83 |
| CC(=O)NC(C)CC(=O)c1cnc(-c2ccc(Oc3cccc(OCC4CC4)c3)cc2)o1 (centres unmarked) [Example 64] | Human ACC1 (Homo sapiens) | % | 99 |
| CC(=O)NC(C)c1ccc(OCc2ccc(Oc3cccc(OCC4CC4)c3)cc2F)nc1 (centres unmarked) [Example 42] | Human ACC1 (Homo sapiens) | % | 85 |

Give the measured inhibition at 10 µM for CC(=O)N[C@@H](C)COc1cnc(-c2ccc(Oc3cccc(OCC4CC4)c3)nc2)o1 [Example 99]
100

Give the measured inhibition at 10 µM for CC(=O)N[C@@H](C)COc1cc(-c2ccc(Oc3cccc(OCC4CC4)c3)cc2)no1 [Example 67]
92

----------
Molecular target: Human ACC1 (Homo sapiens, UniProt Q13085)
Construct: His6 (from vector pFAST-BacHTc; purified on Ni-NTA) (N); made in house; host or cells: SF-9 insect cells, recombinant baculovirus BAC-ACC1
Assay: Measurement of ACC1 inhibitory activity (Malonyl-CoA produced, RapidFire-mass spectrometry)
Type: biochemical
Conditions: 10 μM of the test compound; read-out: ACC1 inhibitory rate (%) at 10 μM
Value kind: inhibition at 10 µM (%)
Note: unit % is implicit; provide only the numeric part.

Solved cases (3 shown):
| Compound | Readout unit | Reported |
| --- | --- | --- |
| CC(=O)NC(C)c1cnc(OCc2c(F)cc(Oc3cccc(OCC4CC4)c3)cc2F)cn1 (stereo not shown) | % | 94 |
| C[C@@H](COc1cnc(-c2ccc(Oc3cccc(OCC4CC4)c3)cn2)o1)NC(N)=O | % | 95 |
| CC(=O)NC(C)c1ccc(OCc2c(F)cc(Oc3cccc(OCC4CC4)c3)cc2F)nn1 (stereo not shown) | % | 97 |

Switching to the query record.
Please indicate recorded inhibition at 10 µM of CC(=O)NC(C)c1ccc(OCc2c(F)cc(Oc3cccc(OCC4CC4)c3)cc2F)cn1 (stereo not shown) measured with Human ACC1 (Homo sapiens, UniProt Q13085).
96
